Documented Kd across a set of binders
- TARGET_OR_SYSTEM: Recombinant human his-tagged IGF 1R extracellular domain protein (human) (UniProt P08069)
- PROTOCOL_SUMMARY: SPR, captured IgG, IGF-1R ECD-his analyte, dissociation pH 7.4

# BINDER, Kd
rows = [
    ("VRDN-02544 (antibody, V domains shown) VH: EVQLVQSGGGLVKPGGSLRLSCAASGFTFSSFAMHWVRQAPGKGLEWISVIDTRGATYYADSVKGRFTISRDNAKNSLYLQMNSLRAEDTAVYYCARLGNFYYGMDVWGQGTTVTVSS VL: EIVLTQSPGTLSVSPGERATLSCRASQSIGSSLHWYQQKPGQAPRLLIKYASQSHSGIPDRFSGSGSGTDFTLTISRLEPEDFAVYYCHQSSRLPHTFGQGTKVEIK", "0.483 nM"),
    ("VRDN-02533 (antibody, V domains shown) VH: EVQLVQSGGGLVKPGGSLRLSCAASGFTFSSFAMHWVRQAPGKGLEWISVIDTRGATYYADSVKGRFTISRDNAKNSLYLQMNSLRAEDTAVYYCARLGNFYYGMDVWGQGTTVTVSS VL: EIVLTQSPGTLSVSPGERATLSCRASQSHGSSLHWYQQKPGQAPRLLIKYASQSLSGIPDRFSGSGSGTDFTLTISRLEPEDFAVYYCHQSSRLPHTFGQGTKVEIK", "0.519 nM"),
    ("VRDN-02502 (antibody, V domains shown) VH: EVQLVQSGGGLVKPGGSLRLSCAASGHTFSSFAMHWVRQAPGKGLEWISVIDTRGATYYADSVKGRFTISRDNAKNSLYLQMNSLRAEDTAVYYCARLGNFYYGMDVWGQGTTVTVSS VL: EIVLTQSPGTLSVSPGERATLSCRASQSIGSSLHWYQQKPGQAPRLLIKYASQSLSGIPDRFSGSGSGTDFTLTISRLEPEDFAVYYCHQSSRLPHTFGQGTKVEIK", "0.0244 nM"),
]
